target: HLA-A*01:01; assay: IEDB peptide-MHC binding, purified MHC/direct/fluorescence; filed as Kd, often an IC50 or EC50 that approximates it; bounds were set here for any values at or beyond the usual limits of such assays; settings: source organism: Influenza A virus (A/camel/Mongolia/1982(H1N1))
ENDPOINT: Kd

Qu. I have this sequence here, HIPEVCLKW , and I need its recorded Kd.
Ans. ≥ 20 µM

* * *

target: HLA-A*26:02; assay: IEDB peptide-MHC binding, purified MHC/direct/fluorescence; filed as Kd, often an IC50 or EC50 that approximates it; bounds were set here for any values at or beyond the usual limits of such assays; settings: source organism: Vibrio cholerae V52
pKd: −log10 of the molar value.
ENDPOINT: pKd

Qu. Report pKd for REVFDYLLP please.
Ans. ≤ 4.70

* * *

target: HLA-A*24:02; test: IEDB peptide-MHC binding, purified MHC/direct/fluorescence; filed as Kd, often an IC50 or EC50 that approximates it; bounds were set here for any values at or beyond the usual limits of such assays; conditions: source organism: Cryptosporidium parvum Iowa II
ENDPOINT: Kd (nM)
A number alone suffices; assume nM.

Qu. // lookup Kd for RYLNIYQLW
Ans. 2

* * *

What Kd was measured for each of the following?
target: HLA-A*11:01; test: IEDB peptide-MHC binding, purified MHC/direct/fluorescence; filed as Kd, often an IC50 or EC50 that approximates it; bounds were set here for any values at or beyond the usual limits of such assays; settings: source organism: Mycobacterium tuberculosis

Qu. Requested field: Kd. Item: RPRRASSPF
Ans. ≥ 20 µM

Qu. Give the measured Kd of TIHLATAPK .
Ans. 0.0087 µM

Qu. Endpoint output: Kd of KVIDIDLER . Value?
Ans. 0.0139 µM

Qu. // lookup Kd for ALRSRWRAL
Ans. ≥ 20 µM

Qu. Which value of Kd has been reported for KYFVRSTEK in the records?
Ans. 1.79 µM

Qu. Need Kd, item EKAAWGVAL
Ans. ≥ 20 µM

Qu. # Kd lookup, item APRGFRAAF
Ans. ≥ 20 µM

Qu. Reported Kd, sequence APRARTAAF : ____
Ans. ≥ 20 µM

Qu. Look up Kd for this sequence: GPASLPTAL
Ans. ≥ 20 µM

* * *

biological target: HLA-A*02:03; test: IEDB peptide-MHC binding, purified MHC/competitive/radioactivity; filed as Kd, often an IC50 or EC50 that approximates it; bounds were set here for any values at or beyond the usual limits of such assays; conditions: source organism: Mammarenavirus tacaribeense
ENDPOINT: Kd

Qu. Any idea what Kd came out for MNNVVQALT on HLA-A*02:03?
Ans. ≥ 21.5 µM

* * *

biological target: HLA-B*07:02; assay: IEDB peptide-MHC binding, purified MHC/direct/fluorescence; filed as Kd, often an IC50 or EC50 that approximates it; bounds were set here for any values at or beyond the usual limits of such assays; details: source organism: Mycobacterium tuberculosis
Would you kindly list pKd for each of these sequences?
Would you please state pKd, meaning minus log10 of the concentration in mol/L, as a bare number?

Qu. If you can, please state the reported pKd value of ALRSRWRAL .
Ans. 7.23

Qu. What does the record list as pKd for GPASLPTAL ?
Ans. 7.38

* * *

biological target: HLA-A*23:01; assay: IEDB peptide-MHC binding, purified MHC/competitive/fluorescence; filed as Kd, often an IC50 or EC50 that approximates it; bounds were set here for any values at or beyond the usual limits of such assays; details: source organism: Paramagnetospirillum magnetotacticum MS-1
ENDPOINT: pKd
Formally, pKd is defined as -log10 of the concentration c, with c in mol/L.

Qu. pKd for FFIQTDAAI ?
Ans. 8.77
